Molecular target: Gal(b1-4)GlcNAc(b1-3)Gal(b1-4)GlcNAc(b1-3)Gal(b1-4)GlcNAc(b1-3)Gal(b1-4)GlcNAc(b1-3)Gal(b1-4)GlcNAc(b1-2)Man(a1-3)[Gal(b1-4)GlcNAc(b1-3)Gal(b1-4)GlcNAc(b1-3)Gal(b1-4)GlcNAc(b1-3)Gal(b1-4)GlcNAc(b1-3)Gal(b1-4)GlcNAc(b1-2)Man(a1-6)]Man(b1-4)GlcNAc(b1-4)[Fuc(a1-6)]GlcNAc
Assay: glycan array binding signal (z-score within array); higher = stronger binding
Conditions: glycan notation: IUPAC condensed, linker removed
The sample as a whole holds a higher share of the strongest signals than the screen did.
List of glycan array binding signal (z-score) values.
Just the number.

DrGal3 (Danio rerio) (protein) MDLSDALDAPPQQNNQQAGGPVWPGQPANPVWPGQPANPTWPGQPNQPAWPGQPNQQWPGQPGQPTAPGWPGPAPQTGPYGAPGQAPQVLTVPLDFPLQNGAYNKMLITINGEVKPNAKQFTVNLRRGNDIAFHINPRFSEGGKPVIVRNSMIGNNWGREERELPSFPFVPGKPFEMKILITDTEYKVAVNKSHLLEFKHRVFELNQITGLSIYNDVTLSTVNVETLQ
4.37

Give the reported value of glycan array binding signal (z-score) for this record: rCnSL-proB (Clitocybe nebularis) (protein) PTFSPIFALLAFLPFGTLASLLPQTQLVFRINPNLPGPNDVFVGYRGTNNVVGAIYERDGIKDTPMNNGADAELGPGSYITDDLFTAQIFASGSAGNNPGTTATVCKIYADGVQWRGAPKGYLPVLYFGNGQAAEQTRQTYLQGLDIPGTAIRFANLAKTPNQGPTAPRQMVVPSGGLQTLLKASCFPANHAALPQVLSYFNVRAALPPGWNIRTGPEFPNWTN
0.375
